Test: Aqueous solubility
Type: physicochemical
Details: aqueous solution, pH 6.8, aqueous buffer; read-out: aqueous solubility at pH 6.8
So basically: solubility at 20 µM or higher? That is satisfied. Lower than 20 µM? That is not satisfied.

Query: Item CC(O)c1cnc(C2=CCN(C(=O)Nc3ccc(C(F)(F)F)cc3)CC2)c(Cl)c1 (stereo not drawn) with solubility of 20 µM or above?
Result: satisfied

Query: I'd appreciate it if you could say whether COC(=O)Cc1cnc(C2=CCN(C(=O)Nc3ccc(C(F)(F)F)cc3)CC2)c(Cl)c1 has solubility at least equal to 20 µM.
Result: not satisfied

Query: Check if solubility >= 20 µM (inclusive). Item: O=C(Nc1ccc(C(F)(F)F)c(F)c1)N1CC=C(c2ncc([C@H](O)CO)cc2Cl)CC1
Result: satisfied

Query: Quick check: does O=C(Nc1ccc(C(F)(F)F)cc1)N1CC=C(c2ncccc2Cl)CC1 have solubility greater than or equal to 20 µM?
Result: not satisfied

Query: Confirm if solubility reported for the molecule O=C(Nc1ccc(OC(F)(F)F)cc1)N1CC=C(c2ncc([C@H](O)CO)cc2Cl)CC1 [Compound E2] is 20 µM or above.
Result: satisfied

Query: Does the reported solubility for CCOC(=O)c1cnc(C2=CCN(C(=O)Nc3ccc(C(F)(F)F)cc3)CC2)c(Cl)c1 fall at or above the 20 µM mark?
Result: not satisfied

Query: Determine whether this molecule has solubility no lower than 20 µM: O=C(Nc1ccc(C(F)(F)F)cc1)N1CC=C(c2ncc([C@H](O)CO)cc2Cl)CC1
Result: satisfied

Query: Exam item: decide whether the reported solubility for O=C(Nc1ccc(OC(F)(F)F)cc1)N1CCC(F)(c2ncc([C@H](O)CO)cc2Cl)CC1 is at least 20 µM.
Result: not satisfied

Query: Does O=C(Nc1ccc(C(F)(F)F)c(F)c1)N1CCC(F)(c2ncc([C@H](O)CO)cc2F)CC1 have a reported solubility of at least 20 µM?
Result: not satisfied

Recorded values, source patent US20090170867A1.
